test: Confirmatory screen GU Rhodamine qHTS for Zika virus inhibitors qHTS (AID 1347157); details: purified enzyme assay, Rhodamine110 substrate fluorescence, 15 min; series mostly up to 114 µM; further: nearly all actives have a fitted effect of over 70% in size
Inconclusive results are not listed. Calls of active or inactive are those of the source. The call rests on the fitted dose curve; in most records, active means well fitted inhibition curve with a large enough effect; inconclusive means small, poorly fitted or top-dose-only effect; inactive means flat fitted curve, though single readings scatter.
Possible outcomes: active, inactive

[[record]]
smiles_structure = "CC1(C)CCC(C)(C)c2cc(C3(c4ccc(C(=O)O)cc4)OCCO3)ccc21"
category_label = "active"

[[record]]
smiles_structure = "COc1ccc(C(=O)n2c(C)c(Cc3cccc(O[C@@H](C)C(=O)O)c3)c3cc(OC(F)(F)F)ccc32)cc1"
category_label = "active"

[[record]]
smiles_structure = "C=CC/C=C\\C/C=C\\CCCCCCCc1cccc(O)c1C(=O)O"
category_label = "active"

[[record]]
smiles_structure = "O=C(Nc1ccc(S(=O)(=O)Nc2nccs2)cc1)C(c1ccccc1)c1ccccc1"
category_label = "active"

[[record]]
smiles_structure = "O=C(O)Cc1ccc2oc(-c3ccc(NC(=O)/C=C/c4ccc(Br)cc4)c(F)c3)nc2c1"
category_label = "active"

[[record]]
smiles_structure = "O=C(O)/C=C/c1ccc(-c2ccc(O)c(C34CC5CC(CC(C5)C3)C4)c2)cc1"
category_label = "active"

[[record]]
smiles_structure = "COc1ccc(C(=O)C2CCN(CC(=O)N(Cc3nc4c(c(=O)[nH]3)COCC4)CC3CC3)CC2)cc1"
category_label = "inactive"

